- System: OVCAR-4 ovarian
- Measurement description: NCI-60 one-dose screen, 48 h
- Stated conditions: 10 µM unless noted
The panel holds about 83,000 compounds, 20% with a hit somewhere; the sample as a whole holds those more often. Activity calls are given as the source filed them. The calls were made as follows: active = growth percent below 10; inactive = the rest.
Outcome codes: TRUE (active), FALSE (inactive)

>>> assigned_category("O=C(CCN1CCCC1)Nc1ccc2c(NCc3ccccc3)c3ccccc3nc2c1")
"TRUE"
>>> assigned_category("Cn1cc(CC2CC(=O)N(c3ccccc3)C2=O)sc1=NC(=O)c1ccccc1 (stereo not drawn)")
"FALSE"
>>> assigned_category("Oc1ccc(C(c2ccc(O)cc2)c2ccc(Br)cn2)cc1")
"TRUE"
>>> assigned_category("CCc1c2c(nc3ccc(OCc4ccc(B(O)O)cc4)cc13)-c1cc3c(c(=O)n1C2)COC(=O)[C@]3(O)CC")
"FALSE"
>>> assigned_category("COc1ccc(C(=O)c2cc(C)c(OC)c(C)c2)c(OC)c1N(C(=O)CCl)C(=O)CCl")
"FALSE"
>>> assigned_category("CCN(CC)c1ccc(/C=N/NC(=O)CSc2nc3ccccc3c(=O)n2Cc2ccc(S(N)(=O)=O)cc2)c(O)c1")
"FALSE"
>>> assigned_category("NS(=O)(=O)c1ccc(CCN2C(=O)C=CC2=O)cc1")
"FALSE"
>>> assigned_category("COc1ccc(C(=O)c2nc3ccccc3n2CC(=O)c2ccc(Cl)cc2)cc1")
"FALSE"
>>> assigned_category("CC(C)(C)c1ccc(NS(=O)(=O)c2ccc3nc(NC(=O)c4cnccn4)[nH]c3c2)cc1")
"FALSE"
>>> assigned_category("COc1cc(C(=O)Nc2cc3c(cc2Oc2cc(C)cc(C)c2)C(=O)N(C)[C@@H](CC(=O)N(C)O)C(=O)N3)c(Br)c(OC)c1OC")
"TRUE"
>>> assigned_category("O=Cc1ccc(-c2cn3ccnc3c(-c3ccc4ncn(Cc5ccccc5)c4c3)n2)cc1")
"FALSE"
>>> assigned_category("COc1cc2c(=O)n(CCCN(C)C)c3c4cc5c(cc4ccc3c2cc1OC)OCO5")
"FALSE"
>>> assigned_category("COc1ccc(C(=O)CSc2nc(-c3cc(OC)ccc3OC)cc(-c3ccc(Cl)cc3)c2C#N)cc1")
"FALSE"
>>> assigned_category("C=C1C(=O)O[C@H]2[C@H]1CC/C(COC(=O)NCCc1c[nH]c3ccc(OC)cc13)=C\\CC[C@@]1(C)O[C@@H]21")
"TRUE"
>>> assigned_category("N#CC1=C(/N=C/c2ccccc2)Oc2c(ccc3ccccc23)C1c1ccc([N+](=O)[O-])cc1 (stereo not drawn)")
"FALSE"
>>> assigned_category("O=C(Nc1ccc(NC(=O)c2cc(=O)[nH]c3ccccc23)cc1)Nc1cccc(Cl)c1")
"FALSE"
>>> assigned_category("CCN(Cc1ccccc1)c1ccc(C=O)cc1")
"FALSE"
>>> assigned_category("C/C(=N\\NC(=O)CSc1nc2ccccc2c(=O)n1CCc1ccc(S(N)(=O)=O)cc1)c1ccccn1")
"FALSE"
>>> assigned_category("CCCCCN1C=C/C(=C\\C(=O)N(C)c2ccc(Oc3ccccc3)cc2)c2ccccc21")
"FALSE"
>>> assigned_category("COc1cccc(-c2cc(C(=O)Nc3ccc(/C=C/c4ccc(OC5CCN(C)CC5)cc4)cc3)ccc2OC)c1")
"TRUE"
>>> assigned_category("N#C/C(=C\\c1ccccn1)c1nc2cc(Cl)ccc2s1")
"FALSE"
>>> assigned_category("COc1ccccc1/C=C1\\Oc2cc(OCCN3CCCC3)ccc2C1=O")
"FALSE"
>>> assigned_category("N#CC1=C(N)Oc2c(ccc3ccccc23)C1c1ccccc1Cl (stereo not drawn)")
"FALSE"
>>> assigned_category("CC(=O)CCC(=O)OCc1cc(=O)c(O)co1")
"FALSE"
>>> assigned_category("O=C(Nc1ccc(-c2ccc3c(c2)NC(=O)/C3=C\\c2ccc[nH]2)cc1)NC1CC1")
"FALSE"
>>> assigned_category("CCCOC(=O)N[C@H]1CCc2cc(OC)c(OC)c(OC)c2-c2ccc(SC)c(=O)cc21")
"FALSE"
>>> assigned_category("c1ccc2cc(Cn3c(-c4cccc5ccccc45)[n+](Cc4ccc5ccccc5c4)c4c5ccccc5c5ccccc5c43)ccc2c1")
"TRUE"
>>> assigned_category("CCCCOc1ccc(/C=N/Nc2cc(C)nc3ccc(Br)cc23)cc1")
"FALSE"
>>> assigned_category("CC(Oc1ccc(C(=O)O)cc1C(F)(F)F)c1ccc(Oc2ccccc2)cn1 (stereo not drawn)")
"FALSE"
>>> assigned_category("O=C1Nc2cc(Cl)ccc2/C1=C\\c1c(-c2ccc(F)cc2)nc2ccccn12")
"TRUE"
>>> assigned_category("Cc1c2cc[nH]c(=O)c2c(C)c2c1[nH]c1cc(OCCN3CCN(C)CC3)ccc12")
"TRUE"
>>> assigned_category("CCOC(=O)c1cc(C(=O)c2ccc(OC)cc2)n2ccc(/C=C/c3cc[n+](CC(=O)c4ccc(OC)cc4)cc3)cc12")
"FALSE"
>>> assigned_category("Brc1ccc(Nc2csc(-c3ccccn3)n2)cc1")
"FALSE"
>>> assigned_category("COc1cc(-c2csc(NC(=O)c3cc(F)cc(C(F)(F)F)c3)n2)cc(OC)c1OC")
"FALSE"
>>> assigned_category("[O-][n+]1c(Cl)cc(Cl)c2ccccc21")
"FALSE"
>>> assigned_category("Cc1nn(-c2ccccc2)c(Cl)c1/C=C/C(=O)c1ccc(F)cc1")
"FALSE"
>>> assigned_category("CCCN1[C@@H]2CC[C@H]1/C(=C\\c1ccc(OC)c(OC)c1)C(=O)/C2=C/c1ccc(OC)c(OC)c1")
"FALSE"
>>> assigned_category("COc1ccc2nc(-c3ccc(-c4noc(-c5cc(OC)c(OC)c(OC)c5)n4)cc3)[nH]c2c1")
"TRUE"
